target: CaV2.2 (Homo sapiens, UniProt Q00975); construct: expressed in transfected cells; host or cells: HEK293; test: VIPR optical membrane potential assay with electrical stimulation; type: cell-based; conditions: Table 3, biological assay data; read-out: IC50
Sequence (Q00975 whole entry): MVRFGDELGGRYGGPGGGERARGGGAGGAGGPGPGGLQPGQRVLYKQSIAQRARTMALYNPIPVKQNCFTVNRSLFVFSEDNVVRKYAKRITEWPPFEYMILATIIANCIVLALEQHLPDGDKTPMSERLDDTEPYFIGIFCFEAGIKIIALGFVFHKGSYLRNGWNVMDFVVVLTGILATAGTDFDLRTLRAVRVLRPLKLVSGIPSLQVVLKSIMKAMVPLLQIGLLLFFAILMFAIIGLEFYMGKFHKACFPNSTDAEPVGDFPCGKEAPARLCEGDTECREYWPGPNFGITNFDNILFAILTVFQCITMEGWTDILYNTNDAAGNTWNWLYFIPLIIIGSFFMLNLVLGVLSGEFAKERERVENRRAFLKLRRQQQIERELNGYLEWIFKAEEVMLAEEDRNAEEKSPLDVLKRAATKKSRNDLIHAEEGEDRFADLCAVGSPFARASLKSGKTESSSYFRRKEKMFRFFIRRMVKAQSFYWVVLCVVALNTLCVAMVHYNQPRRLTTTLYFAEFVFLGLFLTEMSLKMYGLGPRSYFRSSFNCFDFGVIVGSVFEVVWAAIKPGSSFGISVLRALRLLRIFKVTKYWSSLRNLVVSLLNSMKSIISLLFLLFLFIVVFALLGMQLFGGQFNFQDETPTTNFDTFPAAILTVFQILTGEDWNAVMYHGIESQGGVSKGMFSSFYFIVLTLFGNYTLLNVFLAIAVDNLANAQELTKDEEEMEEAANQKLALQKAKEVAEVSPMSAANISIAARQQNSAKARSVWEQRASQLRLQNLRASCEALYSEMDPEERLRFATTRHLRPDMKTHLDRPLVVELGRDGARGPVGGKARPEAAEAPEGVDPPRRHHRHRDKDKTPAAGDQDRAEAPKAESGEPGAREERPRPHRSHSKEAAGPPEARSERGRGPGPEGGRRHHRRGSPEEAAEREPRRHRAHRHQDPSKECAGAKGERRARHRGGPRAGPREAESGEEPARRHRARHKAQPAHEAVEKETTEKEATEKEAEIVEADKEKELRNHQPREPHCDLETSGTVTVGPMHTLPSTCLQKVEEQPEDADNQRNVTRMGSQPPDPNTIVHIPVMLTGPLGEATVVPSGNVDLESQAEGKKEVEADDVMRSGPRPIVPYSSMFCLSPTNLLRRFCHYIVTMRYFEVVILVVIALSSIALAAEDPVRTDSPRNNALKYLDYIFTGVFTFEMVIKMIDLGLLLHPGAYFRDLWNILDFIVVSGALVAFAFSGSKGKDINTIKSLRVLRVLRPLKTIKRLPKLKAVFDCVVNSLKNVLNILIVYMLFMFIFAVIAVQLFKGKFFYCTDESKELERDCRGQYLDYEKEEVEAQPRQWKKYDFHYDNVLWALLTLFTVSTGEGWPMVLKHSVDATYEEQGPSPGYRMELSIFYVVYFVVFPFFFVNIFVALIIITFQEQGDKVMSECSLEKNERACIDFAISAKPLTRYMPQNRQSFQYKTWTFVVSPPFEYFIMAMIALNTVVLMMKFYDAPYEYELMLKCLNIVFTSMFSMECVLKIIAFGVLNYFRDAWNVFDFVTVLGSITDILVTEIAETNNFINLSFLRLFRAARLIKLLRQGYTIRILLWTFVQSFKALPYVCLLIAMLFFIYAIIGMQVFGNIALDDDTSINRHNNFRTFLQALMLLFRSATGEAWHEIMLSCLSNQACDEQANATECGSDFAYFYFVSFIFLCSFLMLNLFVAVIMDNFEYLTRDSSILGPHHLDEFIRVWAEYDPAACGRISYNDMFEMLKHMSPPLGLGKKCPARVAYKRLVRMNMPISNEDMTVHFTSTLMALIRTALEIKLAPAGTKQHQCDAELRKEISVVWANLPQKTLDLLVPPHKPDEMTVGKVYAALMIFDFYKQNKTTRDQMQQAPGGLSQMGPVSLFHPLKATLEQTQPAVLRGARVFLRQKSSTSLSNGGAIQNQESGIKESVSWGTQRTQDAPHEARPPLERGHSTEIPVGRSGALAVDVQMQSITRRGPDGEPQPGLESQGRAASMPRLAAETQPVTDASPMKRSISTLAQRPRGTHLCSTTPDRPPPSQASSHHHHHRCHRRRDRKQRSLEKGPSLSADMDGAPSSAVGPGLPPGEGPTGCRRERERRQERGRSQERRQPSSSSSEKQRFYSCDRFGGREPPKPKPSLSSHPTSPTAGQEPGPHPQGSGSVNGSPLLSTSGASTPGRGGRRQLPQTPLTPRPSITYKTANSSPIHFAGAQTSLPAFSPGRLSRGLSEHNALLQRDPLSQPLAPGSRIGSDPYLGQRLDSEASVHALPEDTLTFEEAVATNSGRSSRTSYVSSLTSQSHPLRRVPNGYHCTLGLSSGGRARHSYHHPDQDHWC
Sequence (P54284 whole entry partner): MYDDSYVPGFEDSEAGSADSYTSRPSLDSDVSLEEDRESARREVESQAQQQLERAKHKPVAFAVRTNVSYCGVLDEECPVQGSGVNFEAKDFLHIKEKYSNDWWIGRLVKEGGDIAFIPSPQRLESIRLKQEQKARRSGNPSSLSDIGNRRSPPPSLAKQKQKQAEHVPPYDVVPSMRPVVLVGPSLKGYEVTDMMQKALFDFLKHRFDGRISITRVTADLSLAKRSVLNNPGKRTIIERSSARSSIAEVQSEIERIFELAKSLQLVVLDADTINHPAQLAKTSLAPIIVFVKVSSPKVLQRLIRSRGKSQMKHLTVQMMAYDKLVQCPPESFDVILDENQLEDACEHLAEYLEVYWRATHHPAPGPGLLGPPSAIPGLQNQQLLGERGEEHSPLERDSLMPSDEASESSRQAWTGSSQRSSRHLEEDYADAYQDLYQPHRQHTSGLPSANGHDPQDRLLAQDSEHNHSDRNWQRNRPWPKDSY
Sequence (P54289 25-946 partner limits assumed): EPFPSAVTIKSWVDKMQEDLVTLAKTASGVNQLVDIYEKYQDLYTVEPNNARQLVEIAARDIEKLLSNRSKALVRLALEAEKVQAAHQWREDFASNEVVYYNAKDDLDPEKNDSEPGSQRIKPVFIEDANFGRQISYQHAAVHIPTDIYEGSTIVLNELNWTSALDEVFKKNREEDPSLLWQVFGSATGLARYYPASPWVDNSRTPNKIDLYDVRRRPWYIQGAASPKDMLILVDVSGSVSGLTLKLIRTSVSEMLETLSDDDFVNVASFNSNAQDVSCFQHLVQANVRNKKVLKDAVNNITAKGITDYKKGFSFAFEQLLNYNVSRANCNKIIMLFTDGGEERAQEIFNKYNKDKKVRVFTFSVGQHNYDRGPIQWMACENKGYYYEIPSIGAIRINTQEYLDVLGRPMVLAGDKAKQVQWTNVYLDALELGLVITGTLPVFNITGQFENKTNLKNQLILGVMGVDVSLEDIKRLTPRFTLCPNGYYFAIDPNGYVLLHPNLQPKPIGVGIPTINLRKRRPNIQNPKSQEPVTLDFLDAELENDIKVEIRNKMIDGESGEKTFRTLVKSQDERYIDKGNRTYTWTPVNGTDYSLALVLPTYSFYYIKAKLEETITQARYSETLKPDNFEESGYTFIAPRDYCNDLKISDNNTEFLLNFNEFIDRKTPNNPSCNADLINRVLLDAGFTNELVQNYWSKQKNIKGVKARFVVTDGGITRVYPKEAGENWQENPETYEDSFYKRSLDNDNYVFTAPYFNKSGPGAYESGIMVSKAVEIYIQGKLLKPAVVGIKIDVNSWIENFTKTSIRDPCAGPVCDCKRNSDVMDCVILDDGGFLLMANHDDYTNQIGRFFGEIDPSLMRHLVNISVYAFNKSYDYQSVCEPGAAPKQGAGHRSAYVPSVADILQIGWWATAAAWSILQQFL
Sequence (P54289 947-1103 partner limits assumed): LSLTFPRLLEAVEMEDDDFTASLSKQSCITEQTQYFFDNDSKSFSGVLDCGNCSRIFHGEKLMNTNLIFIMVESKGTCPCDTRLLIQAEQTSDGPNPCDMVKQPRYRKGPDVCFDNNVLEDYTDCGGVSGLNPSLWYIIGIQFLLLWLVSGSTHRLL
Property measured: IC50

# example entries with known answers
{"Molecule": "CC1CCN(S(=O)(=O)c2ccc3[nH]c(C(=O)NCCC4CCOCC4)cc3c2)CC1", "IC50": "< 5 µM"}
{"Molecule": "Cc1c(C(=O)NCc2ccccc2)[nH]c2ccc(S(=O)(=O)N3CC(C)CC(C)C3)cc12 (stereo not drawn)", "IC50": "< 5 µM"}
{"Molecule": "Cc1c(C(=O)N2CCCCC2)oc2ccc(S(=O)(=O)N3CCC(C)CC3)cc12", "IC50": "5 to 20 µM"}
{"Molecule": "CCN(CC)C(=O)c1oc2ccc(S(=O)(=O)N3CCOCC3)cc2c1C", "IC50": "< 20 µM"}
{"Molecule": "Cc1c(C(=O)N(C)C)oc2ccc(S(=O)(=O)N3CCC(C)CC3)cc12", "IC50": "5 to 20 µM"}
{"Molecule": "Cc1c(C(=O)NC2CCCC2)[nH]c2ccc(S(=O)(=O)N3CC(C)CC(C)C3)cc12 (stereo not drawn)", "IC50": "< 5 µM"}
{"Molecule": "CN(Cc1ccccc1)C(=O)c1cc2cc(S(=O)(=O)N3CCCCCC3)ccc2[nH]1", "IC50": "< 5 µM"}
{"Molecule": "CCNC(=O)c1cc2cc(S(=O)(=O)N3CC(C)CC(C)C3)ccc2[nH]1 (stereo not drawn)", "IC50": "< 5 µM"}
{"Molecule": "CC(C)N(C(=O)c1cc2cc(S(=O)(=O)N3CCCCCC3)ccc2o1)C(C)C", "IC50": "< 5 µM"}
{"Molecule": "Cc1c(C(=O)NCCc2ccccc2)oc2ccc(S(=O)(=O)N3CC(C)CC(C)C3)cc12 (stereo not drawn)", "IC50": "< 5 µM"}

# input for lookup
[Q] Return reported IC50 for target or system CaV2.2 (Homo sapiens, UniProt Q00975), item Cc1c(C(=O)NC(C)C)oc2ccc(S(=O)(=O)N3CCCC(C)C3)cc12 (stereo not drawn) .
[A] 5 to 20 µM
